The origin of these recorded values is ChEMBL document CHEMBL3608207.

Listed next: entries and their corresponding Activity.
System: Rattus norvegicus
assaySummary: Hepato-toxicity in rat Freund's adjuvant induced arthritis model of chronic inflammation assessed as assessed as SGPT level at equimolar oral dose relative to 10 mg/kg, po indomethacin dosed after 14 days from day of adjuvant injection until day 21 and measured on day 21 (reference value: 34.23 +/- 2.5 U/mL)
Format: organism-based
conditionSet: in vivo, 336 h
Your answer should be a plain number; it is taken to be in U/ml.

COc1ccc(-c2nnc(Cn3nc(-c4ccccc4)c(-c4ccccc4)nc3=O)o2)cc1 : 41.31
Nc1ccc(-c2nnc(Cn3nc(-c4ccccc4)c(-c4ccccc4)nc3=O)o2)cc1 : 39.11

**Query** Look up Activity: O=c1nc(-c2ccccc2)c(-c2ccccc2)nn1Cc1nnc(-c2ccc([N+](=O)[O-])cc2)o1
**Result** 45.28

**Query** Now the same for O=c1nc(-c2ccccc2)c(-c2ccccc2)nn1Cc1nnc(-c2ccc(Cl)cc2)o1
**Result** 42.45

**Query** Now the same for O=c1nc(-c2ccccc2)c(-c2ccccc2)nn1Cc1nnc(-c2ccc(O)cc2O)o1
**Result** 39.67
